- ASSAY PROCEDURE: Rotarod test (motor coordination, ataxia) in mice, therapeutic index versus MES
- Assay type: in vivo
- SETUP CONDITIONS: mouse, in vivo, ip; ED50 for rotarod failure divided by ED50 for MES; read-out: TI Rot.
Counter-ions that a name gives are not always drawn.
MEASURED QUANTITY: selectivity ratio at 0.5 h

Before answering, review these 5 worked examples.
CC[C@H]1CC(C)(C)C[C@](C)(N)C1 [MRZ 2/682, hydrochloride]: 3.6
CC12CC3CC(C)(C1)CC(N)(C3)C2 [Memantine, reference compound]: 2.5
CC1(C)CCCC(C)(N)C1 (stereo not shown) [Mrz 2/621]: 1.5
CCCC1(C)CCCC(C)(N)C1 (stereo not shown) [Mrz 2/617]: 1.1
C[C@@H]1C[C@H](C)C[C@](C)(N)C1 [MRZ 2/681, hydrochloride hydrate]: 5.8

Batch lookup, selectivity ratio at 0.5 h per entry.
1. CCCC1(CCC)CC(C)(C)CC(C)(N)C1 (stereo not shown) [Mrz 2/626]
2. CC[C@H]1CC(C)(C)C[C@@](C)(N)C1 [MRZ 2/683, hydrochloride hydrate]

### Response
1
3.5

----------
- TESTED TARGET: NMDA receptor
- ASSAY PROCEDURE: [3H]-(+)-MK-801 binding to rat cortical membranes
- SETUP CONDITIONS: read-out: [3H] MK-801 IC50; Table 7; footnote calls the values Ki
Can you tell me pIC50 for the items I'm about to list?
One number for each entry, as −log10 of the molar value.

Below: 3 compounds and their reported pIC50.
CCCC1(CCC)CC(C)(C)CC(C)(N)C1 (centres unmarked): 4.94
CC12CC3CC(C)(C1)CC(N)(C3)C2 [Memantine, reference compound]: 6.15
CN(C)C1(C)CC(C)(C)CC(C)(C)C1: 4.99

Quick request: pIC50 for each listed item, please.
1. CNC1(C)CC(C)(C)CC(C)(C)C1.Cl [Mrz 2/640, hydrochloride]
2. C[C@H]1CC(C)(C)C[C@@](C)(N)C1 (relative stereo)

### Response
[5.43, 5.44]

----------
Assign TI Tract to each entry below.
- ASSAY PROCEDURE: Traction reflex test (myorelaxant action) in mice, therapeutic index versus MES
- Assay type: in vivo
- SETUP CONDITIONS: ED50 for traction reflex impairment divided by ED50 for MES; 30 min
- Experimental: NMR female mice (18-28 g) housed 5 per cage were used for the maximal electroshock (MES) and motor impairment tests. […] All compounds were dissolved in 0.9% saline. The MES test was performed together with tests for myorelaxant action (traction reflex) and motor coordination (rotarod). […] The presence of tonic convulsions was scored (tonic extension of hind paws with minimum angle to the body of 90°). […]
Numbers only.

Some compounds with known TI Tract results, for comparison:
CC1(C)CC(CN)CC(C)(C)C1.Cl: 1.6
CC[C@@H]1CC(C)(C)C[C@@](C)(N)C1 (relative stereo): 2.4
CCC[C@@]1(C)C[C@H](C)C[C@@](C)(N)C1 (relative stereo): 1.2

For every listed record, write down its TI Tract.
1. CC[C@]1(C)C[C@@H](C)C[C@@](C)(N)C1 (relative stereo)
2. CC[C@@H]1CCC[C@@](C)(N)C1 (relative stereo)
3. CCC1(N)CC(C)(C)CC(C)(C)C1
4. C[C@@H]1CC(C)(C)C[C@@](C)(N)C1 (relative stereo)
5. C[C@@H]1CCC[C@@](C)(N)C1 (relative stereo)
6. CNC1(C)CC(C)(C)CC(C)(C)C1.Cl
7. CCC[C@H]1CCC[C@@](C)(N)C1 (relative stereo)
8. CCC[C@]1(C)C[C@@H](C)C[C@@](C)(N)C1 (relative stereo)

### Response
1: 0.9; 2: 0.9; 3: 0.6; 4: 1.3; 5: 0.5; 6: 2.3; 7: 0.8; 8: 1.0

For each of the compounds below, note its TI Tract.
1. CCNC1(C)CC(C)(C)CC(C)(C)C1
2. CC1(C)CC(C)(C)CC(C)(CCN)C1
3. CCC1(CC)CC(C)(C)CC(C)(N)C1 (stereo not shown)
4. CCCC1(N)CC(C)(C)CC(C)(C)C1
5. CN(C)C1(C)CC(C)(C)CC(C)(C)C1
6. CC1(C)CC(N)CC(C)(C)C1
7. CC[C@@]1(C)C[C@H](C)C[C@@](C)(N)C1 (relative stereo)
8. CC1CC(C)CC(C)(N)C1 (stereo not shown)

### Response
1. 2.6
2. 1.0
3. 1.4
4. 1.5
5. 4.1
6. 1.0
7. 1.1
8. 1.0

State recorded TI Tract for all listed compounds.
1. CCC[C@@H]1CCC[C@@](C)(N)C1 (relative stereo)
2. CCC1(C)CC(C)(C)CC(C)(N)C1 (stereo not shown)

### Response
1: 0.8; 2: 2.5

Dear reader, for each entry below, please note its TI Tract.
1. CC1(C)CC(CCN)CC(C)(C)C1
2. CCC[C@@H]1CC(C)(C)C[C@@](C)(N)C1 (relative stereo)

### Response
[0.5, 1.3]

Batch request: TI Tract per item, same order as input.
1. CC1(C)CC(C)(C)CC(C)(N)C1
2. CC[C@H]1CC(C)(C)C[C@@](C)(N)C1 (relative stereo)

### Response
1. 2.9
2. 2.7

Values were extracted from patent US6034134A.
